assay: Luciferase activity of purified RLuc mutants (light output integrated over 10 s, luminometer); type: biochemical; settings: benzyl-coelenterazine; relative to native enzyme
measurement kind: Activity (relative to RLuc) bc
Returns: the value as a bare number; no unit string appended.

Worked cases, answers included:
C124A/M191L: RLuc mutant C124A/M191L (protein) MASKVYDPEQRKRMITGPQWWARCKQMNVLDSFINYYDSEKHAENAVIFLHGNAASSYLWRHVVPHIEPVARCIIPDLIGMGKSGKSGNGSYRLLDHYKYLTAWFELLNLPKKIIFVGHDWGAALAFHYSYEHQDKIKAIVHAESVVDVIESWDEWPDIEEDIALIKSEEGEKMVLENNFFVETMLPSKILRKLEPEEFAAYLEPFKEKGEVRRPTLSWPREIPLVKGGKPDVVQIVRNYNAYLRASDDLPKMFIESDPGFFSNAIVEGAKKFPNTEFVKVKGLHFSQEDAPDEMGKYIKSFVERVLKNEQ : 0.99
E44G/C124A: RLuc mutant E44G/C124A (protein) MASKVYDPEQRKRMITGPQWWARCKQMNVLDSFINYYDSEKHAGNAVIFLHGNAASSYLWRHVVPHIEPVARCIIPDLIGMGKSGKSGNGSYRLLDHYKYLTAWFELLNLPKKIIFVGHDWGAALAFHYSYEHQDKIKAIVHAESVVDVIESWDEWPDIEEDIALIKSEEGEKMVLENNFFVETMLPSKIMRKLEPEEFAAYLEPFKEKGEVRRPTLSWPREIPLVKGGKPDVVQIVRNYNAYLRASDDLPKMFIESDPGFFSNAIVEGAKKFPNTEFVKVKGLHFSQEDAPDEMGKYIKSFVERVLKNEQ : 0.78
C124A/Q235A: RLuc mutant C124A/Q235A (protein) MASKVYDPEQRKRMITGPQWWARCKQMNVLDSFINYYDSEKHAENAVIFLHGNAASSYLWRHVVPHIEPVARCIIPDLIGMGKSGKSGNGSYRLLDHYKYLTAWFELLNLPKKIIFVGHDWGAALAFHYSYEHQDKIKAIVHAESVVDVIESWDEWPDIEEDIALIKSEEGEKMVLENNFFVETMLPSKIMRKLEPEEFAAYLEPFKEKGEVRRPTLSWPREIPLVKGGKPDVVAIVRNYNAYLRASDDLPKMFIESDPGFFSNAIVEGAKKFPNTEFVKVKGLHFSQEDAPDEMGKYIKSFVERVLKNEQ : 1.1

# evaluate next
Request: In one line, give reported Activity (relative to RLuc) bc of the entry F33R/I34M/C124A: RLuc mutant F33R/I34M/C124A (protein) MASKVYDPEQRKRMITGPQWWARCKQMNVLDSRMNYYDSEKHAENAVIFLHGNAASSYLWRHVVPHIEPVARCIIPDLIGMGKSGKSGNGSYRLLDHYKYLTAWFELLNLPKKIIFVGHDWGAALAFHYSYEHQDKIKAIVHAESVVDVIESWDEWPDIEEDIALIKSEEGEKMVLENNFFVETMLPSKIMRKLEPEEFAAYLEPFKEKGEVRRPTLSWPREIPLVKGGKPDVVQIVRNYNAYLRASDDLPKMFIESDPGFFSNAIVEGAKKFPNTEFVKVKGLHFSQEDAPDEMGKYIKSFVERVLKNEQ .
Response: 0.15
